- assayed system: recombinant PRL-2 (Homo sapiens, UniProt Q12974)
- Construct: 6xHis (N, cleaved yes); made in house; host or cells: E. coli One Shot BL21 Star
- Sequence (Q12974 whole entry): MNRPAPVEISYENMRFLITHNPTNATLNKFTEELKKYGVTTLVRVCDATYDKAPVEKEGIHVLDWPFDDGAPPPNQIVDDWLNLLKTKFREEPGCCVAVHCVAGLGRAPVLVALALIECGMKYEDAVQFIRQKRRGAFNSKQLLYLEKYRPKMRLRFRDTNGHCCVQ
- assay comment: In vitro phosphatase assay (DiFMUP hydrolysis), PRL-2
- Type: biochemical
- cond: FDA-approved drug screen; activity compared to DMSO
Structures can show the parent of a compound that is named as a salt.
observable: % Phosphatase Activity (compared to DMSO) PRL-2
Reply with the number, then its unit.

COc1ccc(CN2CCNCC2)c(OC)c1OC [Trimetazidine dihydrochloride]	93%
CN[C@H]1CC[C@@H](c2ccc(Cl)c(Cl)c2)c2ccccc21 [Sertraline HCl]	101%
O=C(NS(=O)(=O)c1ccc(Br)s1)c1ccc(Cl)cc1Cl [Tasisulam]	87%

Reported % Phosphatase Activity (compared to DMSO) PRL-2 for Cc1ccc(S(=O)(=O)NC(=O)NN2CCCCCC2)cc1 [Tolazamide] : what is it?
84%

Can you look up the measured % Phosphatase Activity (compared to DMSO) PRL-2 of CC(C)NCC(O)c1ccc(NS(C)(=O)=O)cc1 (centres unmarked) [Sotalol] for me?
97%

Which % Phosphatase Activity (compared to DMSO) PRL-2 is listed for CC(C)(C)C#Cc1cc(N(C(=O)[C@H]2CC[C@H](C)CC2)[C@H]2CC[C@H](O)CC2)c(C(=O)O)s1 [VX-222 (VCH-222, Lomibuvir)] ?
85%

---

In this section, each of the compounds is paired with its reported % Phosphatase Activity (compared to DMSO) PRL-3.
- assayed system: recombinant PRL-3 (Homo sapiens)
- Construct: 6xHis (N, cleaved yes); made in house; host or cells: E. coli One Shot BL21 Star
- assay comment: In vitro phosphatase assay (DiFMUP hydrolysis), PRL-3; also: test concentration or dose not given here
- Assay type: biochemical
- cond: FDA-approved drug screen; compared to DMSO
Counter-ions that a name gives are not always drawn.
Just the number in %, nothing appended.

Report % Phosphatase Activity (compared to DMSO) PRL-3 for CCc1ccc(CCOc2ccc(CC3SC(=O)NC3=O)cc2)nc1 (centres unmarked) [Pioglitazone] please.
80

So what does the record say about % Phosphatase Activity (compared to DMSO) PRL-3 for `C[C@@H]1O[C@@H](OC[C@H]2O[C@@H](Oc3c(-c4ccc(O)c(O)c4)oc4cc(O)cc(O)c4c3=O)[C@H](O)[C@@H](O)[C@@H]2O)[C@H](O)[C@H](O)[C@H]1O` ?
71

For the compound shown here, `COC(=O)N[C@H](C(=O)N1CC2(CC2)C[C@H]1c1nc(-c2ccc3c(c2)C(F)(F)c2cc(-c4ccc5[nH]c([C@@H]6[C@H]7CC[C@H](C7)N6C(=O)[C@@H](NC(=O)OC)C(C)C)nc5c4)ccc2-3)c[nH]1)C(C)C` , give the reported % Phosphatase Activity (compared to DMSO) PRL-3.
144

Which value of % Phosphatase Activity (compared to DMSO) PRL-3 has been reported for CCOC(=O)[C@H](CCc1ccccc1)N[C@@H](C)C(=O)N1CCC[C@H]1C(=O)O [Enalapril Maleate] in the records?
93

---

- assayed system: recombinant PRL-3 (Homo sapiens, UniProt O75365)
- Construct: 6xHis (N, cleaved yes); made in house; host or cells: E. coli One Shot BL21 Star
- Sequence (O75365 whole entry): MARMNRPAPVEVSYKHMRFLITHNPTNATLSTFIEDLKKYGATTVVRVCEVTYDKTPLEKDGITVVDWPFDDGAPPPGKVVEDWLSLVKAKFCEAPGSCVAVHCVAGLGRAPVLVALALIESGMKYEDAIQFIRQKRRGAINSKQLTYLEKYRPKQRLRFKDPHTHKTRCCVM
- assay comment: In vitro phosphatase assay (DiFMUP hydrolysis), PRL-3; also: test concentration or dose not given here
- Assay type: biochemical
- cond: FDA-approved drug screen; activity compared to DMSO
Counter-ions that a name gives are not always drawn.
Readings of % Phosphatase Activity (compared to DMSO) PRL-3 for the listed molecules
The answer is to be given in %; state only the numeric part.

// worked examples, % Phosphatase Activity (compared to DMSO) PRL-3 included
O=C1CCC(N2C(=O)c3ccccc3C2=O)C(=O)N1 (stereo not drawn) [Thalidomide]	79
O=C[C@H](O)[C@@H](O)[C@H](O)CO	68
N[C@@H](CC(=O)N1CCn2c(nnc2C(F)(F)F)C1)Cc1cc(F)c(F)cc1F [Sitagliptin phosphate monohydrate]	89
CCC(C)(C)C(=O)O[C@H]1C[C@@H](C)C=C2C=C[C@H](C)[C@H](CC[C@@H]3C[C@@H](O)CC(=O)O3)[C@H]21	91
CCOc1ccccc1OCCN[C@H](C)Cc1ccc(OC)c(S(N)(=O)=O)c1	83

Param item = CN[C@@H]1[C@@H](O)[C@@H](O[C@@H]2[C@@H](O)[C@H](O[C@H]3OC(CN)=CC[C@H]3N)[C@@H](N)C[C@H]2N)OC[C@]1(C)O [Sisomicin sulfate] ; retrieve measured % Phosphatase Activity (compared to DMSO) PRL-3.
107

What value of % Phosphatase Activity (compared to DMSO) PRL-3 has been recorded for this entry: `CC1(C)CCC(C)(C)c2cc(NC(=O)c3ccc(C(=O)O)cc3)ccc21`
73

Value lookup for % Phosphatase Activity (compared to DMSO) PRL-3; key = O=C(O[C@H]1CN2CCC1CC2)N1CCc2ccccc2[C@@H]1c1ccccc1 [Solifenacin succinate]
114

So what's the measured % Phosphatase Activity (compared to DMSO) PRL-3 for this one? `Cc1onc(-c2ccccc2)c1-c1ccc(S(N)(=O)=O)cc1`
80

Any idea what % Phosphatase Activity (compared to DMSO) PRL-3 was measured for `C[C@]12CC[C@H]3[C@@H](CC[C@@]45O[C@@H]4C(O)=C(C#N)C[C@]35C)[C@@H]1CC[C@@H]2O` ?
88

Suppose we examine the molecule `CCCSc1nc(N[C@@H]2C[C@H]2c2ccc(F)c(F)c2)c2nnn([C@@H]3C[C@H](OCCO)[C@@H](O)[C@H]3O)c2n1` ; what % Phosphatase Activity (compared to DMSO) PRL-3 value has been reported?
85

# input molecule: `Cc1ccc(NC(=O)C2(c3ccc4c(c3)OC(F)(F)O4)CC2)nc1-c1cccc(C(=O)O)c1` ; wanted: its % Phosphatase Activity (compared to DMSO) PRL-3
90

Request the reported % Phosphatase Activity (compared to DMSO) PRL-3 associated with `COc1ncnc(NS(=O)(=O)c2ccc(N)cc2)c1OC`
76

Give its % Phosphatase Activity (compared to DMSO) PRL-3 value. Item: CN1CCC(COc2cnc(-c3cccc(Cn4nc(-c5cccc(C#N)c5)ccc4=O)c3)nc2)CC1 [Tepotinib (EMD 1214063)]
113

For the molecule shown here, CC(C)(C)c1ccc(C(O)CCCN2CCC(C(O)(c3ccccc3)c3ccccc3)CC2)cc1 (stereo not drawn) , give the reported % Phosphatase Activity (compared to DMSO) PRL-3.
91

---

The reader will find reported % Phosphatase Activity (compared to DMSO) PRL-1 values listed item by item below.
- assayed system: recombinant PRL-1 (Homo sapiens, UniProt Q93096)
- Construct: 6xHis (N, cleaved yes); made in house; host or cells: E. coli One Shot BL21 Star
- Sequence (Q93096 whole entry): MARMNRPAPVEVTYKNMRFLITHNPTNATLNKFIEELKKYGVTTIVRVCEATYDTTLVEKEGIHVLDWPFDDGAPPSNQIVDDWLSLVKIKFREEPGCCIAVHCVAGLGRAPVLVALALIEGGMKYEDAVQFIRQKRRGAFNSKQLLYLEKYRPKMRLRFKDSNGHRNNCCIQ
- assay comment: In vitro phosphatase assay (DiFMUP hydrolysis), PRL-1; also: test concentration or dose not given here
- Assay type: biochemical
- cond: FDA-approved drug screen; compared to DMSO
Structures can show the parent of a compound that is named as a salt.
Write down the value, and be sure its unit follows.

CO[C@H]1/C=C/O[C@@]2(C)Oc3c(C)c(O)c4c(O)c(c(/C=N/N5CCN(C)CC5)c(O)c4c3C2=O)NC(=O)/C(C)=C\C=C\[C@H](C)[C@H](O)[C@@H](C)[C@@H](O)[C@@H](C)[C@H](OC(C)=O)[C@@H]1C	58%
Cc1c(O)cccc1C(=O)N[C@@H](CSc1ccccc1)[C@H](O)CN1C[C@H]2CCCC[C@H]2C[C@H]1C(=O)NC(C)(C)C [Nelfinavir Mesylate]	102%

Consider the additional compound presented here.
// lookup % Phosphatase Activity (compared to DMSO) PRL-1 | system=recombinant PRL-1 (Homo sapiens, UniProt Q93096) | key= `CCOC(=O)c1ccc(N)cc1`
87%

---

Collected % Phosphatase Activity (compared to DMSO) PRL-2 values appear next to each entry.
- assayed system: recombinant PRL-2 (Homo sapiens, UniProt Q12974)
- Construct: 6xHis (N, cleaved yes); made in house; host or cells: E. coli One Shot BL21 Star
- assay comment: In vitro phosphatase assay (DiFMUP hydrolysis), PRL-2;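 also: PRL-2 activity read as DiFMUP hydrolysis after 20 min at room temperature with drug, enzyme first pre-reduced at 4 °C for 20 min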
- Type: biochemical
- cond: FDA-approved drug screen; compared to DMSO
Counter-ions that a name gives are not always drawn. Starred links: 1 amine or outer side, 2 acyl side, 3 side chain; linkers in the order of their positions; H or OH if unused. Positions of bridges follow the written chain, without caps; N, C: chain ends. Non-standard residues stand in square brackets, D forms with d. Residues, ends and D or L forms follow the SMILES beside them. *: point of attachment. pTerphenylCO(4''-OnC5H11) = CCCCCOc1ccc(-c2ccc(-c3ccc(C(=O)*)cc3)cc2)cc1; Orn(4R-OH,5R-OH) = O=C([C@H](C[C@@H](O)[C@@H](O)N[*:3])N[*:1])[*:2]; hTyr(3S-OH,4S-OH) = N[C@H](C(=O)O)[C@H](O)[C@@H](O)c1ccc(O)cc1; Pro(3S-OH,4S-Me) = C[C@H]1CN[C@H](C(=O)O)[C@H]1O; Hyp = O=C(O)[C@@H]1C[C@@H](O)CN1
A number alone suffices; assume %.

CC(C)C[C@H](NC(=O)CNC(=O)c1cc(Cl)ccc1Cl)B(O)O	105
CN(C)c1nc(N(C)C)nc(N(C)C)n1	89

# input compound: CC(=O)O[C@]1(C(C)=O)CC[C@H]2[C@@H]3C=C(Cl)C4=CC(=O)[C@@H]5C[C@@H]5[C@]4(C)[C@H]3CC[C@@]21C [Cyproterone Acetate] ; wanted: its % Phosphatase Activity (compared to DMSO) PRL-2
91

I am curious: what % Phosphatase Activity (compared to DMSO) PRL-2 value has been reported for CCCCCOc1ccc(-c2ccc(-c3ccc(C(=O)N[C@H]4C[C@@H](O)[C@@H](O)NC(=O)[C@@H]5[C@@H](O)[C@@H](C)CN5C(=O)[C@H]([C@@H](C)O)NC(=O)[C@H]([C@H](O)[C@@H](O)c5ccc(O)cc5)NC(=O)[C@@H]5C[C@@H](O)CN5C(=O)[C@H]([C@@H](C)O)NC4=O)cc3)cc2)cc1 [Anidulafungin (LY303366)] ({pTerphenylCO(4''-OnC5H11)}-[Orn(4R-OH,5R-OH)]T[Hyp][hTyr(3S-OH,4S-OH)]T[Pro(3S-OH,4S-Me)]; lactam 1-C) ?
568

Could you share which % Phosphatase Activity (compared to DMSO) PRL-2 value was measured for `CN(C)c1ccc2nc3ccc(=[N+](C)C)cc-3sc2c1` ?
72

Suppose we examine the compound `CNCc1ccc(-c2[nH]c3cc(F)cc4c3c2CCNC4=O)cc1` ; what % Phosphatase Activity (compared to DMSO) PRL-2 value has been reported?
3226

Which value of % Phosphatase Activity (compared to DMSO) PRL-2 has been reported for O=C1c2cccc3c2[C@H](CCC3)CN1[C@@H]1CN2CCC1CC2 [Palonosetron HCl] in the records?
96

The reported measurements were obtained from paper PMC8119466.
